Reference source: ChEMBL document CHEMBL4033756

Tested on: Mycobacterium tuberculosis
PROCEDURE DETAILS: Antitubercular activity against multidrug-resistant Mycobacterium tuberculosis 14231 after 7 days by microplate alamar blue assay
Type: functional
CONDITIONS USED: Mycobacterium tuberculosis, 14231, 168 h
# Lookup of reported MIC90 keyed by entry
MEASURED METRIC: MIC90 (µM)

| SMILES | MEASURED METRIC | MEASUREMENT QUALIFIER | RESULT |
| --- | --- | --- | --- |
| O=c1nc(N2CCC3(CCN(Cc4ccc(Br)cc4)CC3)CC2)sc2c([N+](=O)[O-])cc(C(F)(F)F)cc12 | MIC90 | = | 0.086 |
| O=c1nc(N2CCN(CC3CCCCC3)CC2)sc2c([N+](=O)[O-])cc(C(F)(F)F)cc12 | MIC90 | < | 0.035 |
| O=c1nc(N2CCC3(CCN(Cc4cc(F)cc(F)c4)CC3)CC2)sc2c([N+](=O)[O-])cc(C(F)(F)F)cc12 | MIC90 | < | 0.035 |
| NNC(=O)c1ccncc1 | MIC90 | = | 34.5 |
| COc1ccc(CN2CC3(CCN(c4nc(=O)c5cc(C(F)(F)F)cc([N+](=O)[O-])c5s4)CC3)C2)cc1 | MIC90 | = | 0.123 |
| COc1ccc(CN2CCC3(CCN(c4nc(=O)c5cc(C(F)(F)F)cc([N+](=O)[O-])c5s4)CC3)C2)cc1 | MIC90 | = | 0.095 |
| CO[C@H]1/C=C/O[C@@]2(C)Oc3c(C)c(O)c4c(O)c(c(/C=N/N5CCN(C)CC5)c(O)c4c3C2=O)NC(=O)/C(C)=C\C=C\[C@H](C)[C@H](O)[C@@H](C)[C@@H](O)[C@@H](C)[C@H](OC(C)=O)[C@@H]1C | MIC90 | > | 48.6 |
| O=c1nc(N2CCC3(CCN(Cc4ccc(C(F)(F)F)cc4)CC3)CC2)sc2c([N+](=O)[O-])cc(C(F)(F)F)cc12 | MIC90 | < | 0.035 |

* * *

# Lookup of reported MIC90 keyed by entry
System: Mycobacterium tuberculosis
PROCEDURE DETAILS: Antitubercular activity against multidrug-resistant Mycobacterium tuberculosis 14231 after 7 days by microplate alamar blue assay
Type: functional
CONDITIONS USED: Mycobacterium tuberculosis, 14231, 168 h
MEASURED METRIC: MIC90 (µM)

| SMILES | TARGET | MEASURED METRIC | MEASUREMENT QUALIFIER | RESULT |
| --- | --- | --- | --- | --- |
| O=c1nc(N2CCC3(CCN(Cc4cccc(F)c4)CC3)CC2)sc2c([N+](=O)[O-])cc(C(F)(F)F)cc12 | Mycobacterium tuberculosis | MIC90 | < | 0.035 |
| O=c1nc(N2CCC3(CCN(Cc4ccc(F)cc4)C3)CC2)sc2c([N+](=O)[O-])cc(C(F)(F)F)cc12 | Mycobacterium tuberculosis | MIC90 | = | 0.034 |
| CCOC(=O)CN1CCC2(CCN(c3nc(=O)c4cc(C(F)(F)F)cc([N+](=O)[O-])c4s3)CC2)C1 | Mycobacterium tuberculosis | MIC90 | = | 0.06 |
| O=c1nc(N2CCC3(CCN(Cc4ccccc4)C3)CC2)sc2c([N+](=O)[O-])cc(C(F)(F)F)cc12 | Mycobacterium tuberculosis | MIC90 | < | 0.035 |
